Before we begin, note that these IC50 values for Kappa-type opioid receptor (Cavia porcellus) originate from several publications.

Observe how each entry below is paired with its result.
* COc1ccc(C[C@H]2CN3C(=NC[C@@H]3C3CCCCC3)N2CCC23CC4CC(CC(C4)C2)C3)cc1 | 4.92 µM
* CC(C)C[C@@H]1CN2C(=NC[C@H]2C2CCCCC2)N1CCC12CC3CC(CC(C3)C1)C2 | 1.75 µM
* CC(C)C[C@@H]1CN2C(=NC[C@@H]2C)N1CCCC1CCCCC1 | 5.44 µM
* CCC[C@H]1CN=C2N(CC3CCC3)[C@H](Cc3ccc(OC)cc3)CN21 | > 10 µM

Q) IC50 lookup needed for CN(CC1CC1)C1Cc2ccc(O)c3c2[C@@]2(CCn4ccnn4)[C@@H](O3)C(=O)CC[C@@]12O (some centres undefined) , thanks.
A) > 1 µM

Q) Can you check "COc1ccc(C[C@H]2CN3C(=NC[C@H]3CC3CCCCC3)N2CC2CCCC2)cc1" next?
A) > 10 µM

Q) Can you check C[S+]([O-])CC[C@H](NC(=O)[C@H](Cc1ccc(O)cc1)N=C(N)N)C(=O)N[C@@H](Cc1ccccc1)C(=O)NCC(N)=O (some centres undefined) next?
A) > 10 µM

Q) Can you check "C1CCC([C@H]2CN3C(=NC[C@H]3C3CCCCC3)N2CCC23CC4CC(CC(C4)C2)C3)CC1" next?
A) > 10 µM

Q) Can you check "CC(C)C[C@H]1CN2C(=NC[C@@H]2C)N1CCCC1CCCCC1" next?
A) > 10 µM
